- target: pEGFR (Tyr1068) in PC-9 cells (Ex19Del) (Homo sapiens (Human), UniProt P00533, DEL746-750)
- Sequence (P00533 other isoform, or with tags, fused parts or gaps del 746-750): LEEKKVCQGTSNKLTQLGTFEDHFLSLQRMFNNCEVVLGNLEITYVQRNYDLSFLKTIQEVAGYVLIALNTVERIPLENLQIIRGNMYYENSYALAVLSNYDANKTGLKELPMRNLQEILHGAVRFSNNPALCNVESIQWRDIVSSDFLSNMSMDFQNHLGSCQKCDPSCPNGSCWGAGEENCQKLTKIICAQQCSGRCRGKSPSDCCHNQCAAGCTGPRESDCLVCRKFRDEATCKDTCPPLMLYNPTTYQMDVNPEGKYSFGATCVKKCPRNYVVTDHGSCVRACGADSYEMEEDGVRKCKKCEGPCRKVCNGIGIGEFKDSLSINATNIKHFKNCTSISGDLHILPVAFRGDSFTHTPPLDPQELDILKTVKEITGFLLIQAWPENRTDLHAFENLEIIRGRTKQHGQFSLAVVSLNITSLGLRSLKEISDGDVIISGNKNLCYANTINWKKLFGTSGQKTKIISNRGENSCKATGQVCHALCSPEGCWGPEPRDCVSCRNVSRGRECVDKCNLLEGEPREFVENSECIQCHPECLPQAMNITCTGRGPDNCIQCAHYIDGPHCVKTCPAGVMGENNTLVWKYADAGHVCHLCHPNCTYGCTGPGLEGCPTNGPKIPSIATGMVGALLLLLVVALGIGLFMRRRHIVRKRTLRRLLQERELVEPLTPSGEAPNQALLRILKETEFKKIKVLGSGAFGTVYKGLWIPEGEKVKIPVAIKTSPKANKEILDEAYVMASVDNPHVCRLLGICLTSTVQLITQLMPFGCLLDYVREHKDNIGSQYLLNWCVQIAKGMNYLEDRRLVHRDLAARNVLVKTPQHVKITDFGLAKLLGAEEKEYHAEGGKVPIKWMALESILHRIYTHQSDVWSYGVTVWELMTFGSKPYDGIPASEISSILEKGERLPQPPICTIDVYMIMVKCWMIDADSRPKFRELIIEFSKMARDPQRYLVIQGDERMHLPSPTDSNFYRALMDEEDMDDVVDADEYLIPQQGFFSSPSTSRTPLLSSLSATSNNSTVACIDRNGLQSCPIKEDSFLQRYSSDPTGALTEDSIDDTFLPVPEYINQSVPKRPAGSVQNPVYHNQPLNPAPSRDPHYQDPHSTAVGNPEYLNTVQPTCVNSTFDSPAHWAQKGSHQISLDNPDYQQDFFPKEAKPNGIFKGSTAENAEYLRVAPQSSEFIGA
- experiment: PC-9 pEGFR AlphaLISA assay
- applied-conditions: 4 hours incubation, p-EGFR (Tyr1068) AlphaLISA, read-out: Ext pEGFR_PC-9 Ex19Del IC50
readout: IC50 (nM)

Record excerpt, results attached:
1. CN(C)CCOc1cc2ncnc(-c3cn(C)nc3-c3ccccc3)c2cc1NC(=O)C12CC(C1)C2 | 7.1
2. CCn1ccc(C(=O)Nc2cc3c(-c4cn(C)nc4-c4ccccc4)ncnc3cc2OC)n1 | 0.6
3. CCC(=O)Nc1cc2c(-c3cnn(C4COC4)c3-c3ccccc3)ncnc2cc1OC | 495
4. COc1cc2ncnc(-c3cn(C)nc3-c3ccc(F)cc3)c2cc1NC(=O)C1(CN(C)C)CC1 | 3.3
5. COc1cc2ncnc(-c3cn(C)nc3-c3ccccc3)c2cc1NC(=O)c1ccn(C(C)C)n1 | 0.8

1: CCOc1cc2ncnc(-c3cn(C)nc3-c3ccccc3)c2cc1[C@@H](C)O (single isomer, unassigned)
2: CN(C)CCOc1cc2ncnc(-c3cn(C)nc3-c3ccccc3)c2nc1NC(=O)C12COCC1C2 (stereo not drawn)
Prompt line: // pick larger IC50 from pair: 1 vs 2 Please indicate the selected item by its label.
Response line: 2
(2: 9.7 nM, 1: 5.2 nM)

I: COc1cc2ncnc(-c3cn(C)nc3-c3ccccc3)c2nc1O[C@@H](C)c1cccnc1F
II: CCC(=O)Nc1cc2c(-c3cnn(CC(F)F)c3-c3ccccc3)ncnc2cc1OC
Prompt line: Hi there, can you help? I need to know whether I or II has lower measured IC50. Please indicate the selected item by its label.
Response line: I

###

- target: pEGFR (Tyr1068) in PC-9 cells (Ex19Del) (Homo sapiens (Human), UniProt P00533, DEL746-750)
- experiment: PC-9 pEGFR AlphaLISA assay
- applied-conditions: 4 hours incubation, p-EGFR (Tyr1068) AlphaLISA, read-out: Ext pEGFR_PC-9 Ex19Del IC50
readout: IC50 (nM)

Record excerpt, results attached:
1. COc1cc2ncnc(-c3cn(C)nc3-c3ccccc3)c2nc1O[C@H](C)c1nnnn1C | 11.7
2. COc1cc2ncnc(-c3cn(CC(F)(F)F)nc3-c3ccccc3)c2cc1OC(=O)N1CCN(C)C[C@@H]1C | 3.6

A: CCC(=O)Nc1cc2c(-c3cn(C)nc3-c3ccccc3)ncnc2cc1-c1ccncn1
B: COc1cc2ncnc(-c3cn(C)nc3-c3ccccc3)c2cc1-c1cnc(C(C)(C)O)s1
Prompt line: Hi there, can you help? I need to know whether A or B has lower measured IC50. Please indicate the selected item by its label.
Response line: A

###

- target: pEGFR (Tyr1068) in PC-9 cells (Ex19Del) (Homo sapiens (Human), UniProt P00533, DEL746-750)
- experiment: PC-9 pEGFR AlphaLISA assay
- applied-conditions: 4 hours incubation, p-EGFR (Tyr1068) AlphaLISA, read-out: Ext pEGFR_PC-9 Ex19Del IC50
pIC50: −log10 of the molar value.
readout: pIC50

1) COc1cc2ncnc(-c3cn(C)nc3-c3ccccc3)c2nc1NC(=O)C12CC(C1)C2 | 8.55
2) COc1cc2ncnc(-c3cn(C)nc3-c3c(F)cccc3F)c2cc1NC(=O)[C@@]12C[C@@H]1CN(C)C2 | 8.02
3) COc1cc2ncnc(-c3cn(CC(F)F)nc3-c3ccc(F)cc3)c2cc1C1(O)CC1 | 7.86
4) COc1cc2ncnc(-c3cn(C)nc3-c3ccccc3)c2cc1C1=CCN(C)C1 | 8.48

a: CCc1ccc(-c2cc3c(-c4cn(C)nc4-c4ccccc4)ncnc3cc2OC)c2c[nH]nc12
b: COc1cc2ncnc(-c3cn(C)nc3-c3ccccc3)c2cc1NC(=O)[C@@H](C)CN(C)C (single isomer, unassigned)
Prompt line: // pick larger pIC50 from pair: a vs b Please indicate the selected item by its label.
Response line: a
(a: 8.57, b: 7.59)

P: COc1cc2ncnc(-c3cn(C)nc3-c3ccccc3)c2nc1NC(=O)C12CC(N(C)C)(C1)C2
Q: COc1cc2ncnc(-c3cn(C)nc3-c3ccccc3)c2cc1NC(=O)c1cccnc1C
R: COc1cc2ncnc(-c3cn(C)nc3-c3ccccc3)c2nc1O[C@@H](C)c1cnnn1C
S: COc1cc2ncnc(-c3cn(C)nc3-c3ccccc3)c2nc1-c1cccc2c1OCC(=O)N2
T: COCCOc1cc2ncnc(-c3cn(CC(F)F)nc3-c3ccccc3)c2cc1OC
Prompt line: Please put the entries in order of rising pIC50. Form entry: labels listed in requested order.
Response line: R, S, Q, P, T
(R: 7.36, S: 7.89, Q: 8.23, P: 8.44, T: 8.68)

A: CCOc1cc2ncnc(-c3cn(C)nc3-c3ccccc3)c2cc1OC1CCNCC1
B: CCOc1cc2ncnc(-c3cn(C)nc3-c3ccccc3)c2cc1OC1CCN(C)CC1
Prompt line: Hi there, can you help? I need to know whether A or B has lower measured pIC50. Please indicate the selected item by its label.
Response line: B
(B: 8.01, A: 8.35)

P: COc1cc2ncnc(-c3cn(C)nc3-c3ccccc3)c2cc1NC(=O)c1ccc(C)nc1
Q: COc1cc2ncnc(-c3cn(C)nc3-c3ccccc3)c2cc1NC(=O)c1ccc(F)cc1
R: CCn1ncc(-c2ncnc3cc(-c4cnn(C)c4)ccc23)c1-c1ccccc1
Prompt line: Please put the entries in order of rising pIC50. Form entry: labels listed in requested order.
Response line: R, P, Q

###

- target: EGFR L858R (Homo sapiens (Human), UniProt P00533, L858R)
- Sequence (P00533 25-1210 L858R): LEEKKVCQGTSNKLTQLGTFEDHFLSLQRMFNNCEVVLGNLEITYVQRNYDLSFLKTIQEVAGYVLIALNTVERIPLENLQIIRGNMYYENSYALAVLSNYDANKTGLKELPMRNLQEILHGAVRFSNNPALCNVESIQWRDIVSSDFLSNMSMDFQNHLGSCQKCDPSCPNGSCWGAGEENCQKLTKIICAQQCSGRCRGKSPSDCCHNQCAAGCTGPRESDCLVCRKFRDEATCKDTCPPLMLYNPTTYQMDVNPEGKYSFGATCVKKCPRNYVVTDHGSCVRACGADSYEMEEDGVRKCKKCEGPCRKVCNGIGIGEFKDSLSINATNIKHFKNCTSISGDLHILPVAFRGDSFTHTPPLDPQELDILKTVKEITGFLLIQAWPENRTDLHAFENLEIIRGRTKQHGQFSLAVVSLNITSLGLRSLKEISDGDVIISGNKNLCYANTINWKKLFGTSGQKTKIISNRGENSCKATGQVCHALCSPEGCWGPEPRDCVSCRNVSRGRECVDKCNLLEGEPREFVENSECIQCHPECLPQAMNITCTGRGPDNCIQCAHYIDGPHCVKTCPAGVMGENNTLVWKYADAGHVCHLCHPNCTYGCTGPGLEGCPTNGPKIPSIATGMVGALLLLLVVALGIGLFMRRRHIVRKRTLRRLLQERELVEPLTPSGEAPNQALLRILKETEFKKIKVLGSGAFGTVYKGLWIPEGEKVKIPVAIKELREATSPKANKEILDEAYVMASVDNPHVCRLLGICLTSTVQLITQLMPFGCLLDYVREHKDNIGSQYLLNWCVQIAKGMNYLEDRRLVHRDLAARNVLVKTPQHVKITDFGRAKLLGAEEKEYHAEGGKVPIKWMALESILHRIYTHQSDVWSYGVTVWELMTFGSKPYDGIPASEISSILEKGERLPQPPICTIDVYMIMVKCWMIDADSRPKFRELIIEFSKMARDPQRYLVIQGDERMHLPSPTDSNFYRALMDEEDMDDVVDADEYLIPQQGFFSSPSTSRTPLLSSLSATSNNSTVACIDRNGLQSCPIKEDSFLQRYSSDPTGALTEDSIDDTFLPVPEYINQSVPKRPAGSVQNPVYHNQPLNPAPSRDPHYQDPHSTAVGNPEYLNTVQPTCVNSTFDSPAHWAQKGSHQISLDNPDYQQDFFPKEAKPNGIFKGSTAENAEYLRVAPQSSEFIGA
- experiment: Biochemical EGFR inhibition assay, EGFR L858R
- applied-conditions: Caliper mobility shift; 1.0 mM ATP or ATP Km; read-out: Enz EGFR_L858R IC50
- Procedure: Reactions proceeded until between 10% to 20% total peptides were phosphorylated at room temperature (25° C.) and were terminated with 35 mM 2,2′,2″,2″-(ethane-1,2-diyldinitrilo)tetraacetic acid (EDTA). Product was detected using the Caliper mobility shift detection method where the phosphorylated peptide (product) and substrate were electrophoretically separated and measured. Percent activity was plotted against log concentration of compound and points to generate an apparent IC50.
readout: IC50 (nM)

1. COc1cc2ncnc(-c3cn(C)nc3-c3ccccc3)c2cc1OC(=O)N1CCO[C@H](C)[C@@H]1C [Example 94] | 6.4
2. COc1cc2ncnc(-c3cn(C)nc3-c3ccccc3)c2cc1NC(=O)c1ccc(F)cc1 [Example 222] | 1.5
3. COc1cc2ncnc(-c3cn(CC(F)F)nc3-c3ccccc3)c2cc1N1CCOCC1 [Example 168] | 1.5
4. [2H]C([2H])([2H])n1cc(-c2ncnc3cc(OC)c(NC(=O)C4(C(F)(F)F)CC4)nc23)c(-c2ccccc2)n1 [Example 320] | 2

A: COc1cc2ncnc(-c3cn(C)nc3-c3ccccc3F)c2nc1NC(=O)[C@@]12COC[C@@H]1C2 (single isomer, unassigned) [Example 387]
B: COc1cc2ncnc(-c3cn(C)nc3-c3ccccc3)c2cc1NC(=O)[C@@H]1CCN(C)C[C@H]1F [Example 284]
C: COc1cc2ncnc(-c3cn(C)nc3-c3ccccc3)c2nc1O[C@@H](C)c1cscn1 (single isomer, unassigned) [Example 50]
Prompt line: Please put the entries in order of rising IC50. Form entry: labels listed in requested order.
Response line: C, A, B
(C: 0.5 nM, A: 2 nM, B: 8.7 nM)

###

- target: pEGFR (Tyr1068) in PC-9 cells (Ex19Del) (Homo sapiens (Human), UniProt P00533, DEL746-750)
- experiment: PC-9 pEGFR AlphaLISA assay
- applied-conditions: 4 hours incubation, p-EGFR (Tyr1068) AlphaLISA, read-out: Ext pEGFR_PC-9 Ex19Del IC50
pIC50: −log10 of the molar value.
readout: pIC50

Record excerpt, results attached:
1) COc1cc2ncnc(-c3cn(C)nc3-c3ccccc3F)c2cc1OC(=O)N1CCOC[C@@H]1C | 8.35
2) COc1cc2ncnc(-c3cn(C)nc3-c3ccccc3)c2nc1O[C@@H](C)c1csc(C)n1 | 9.10
3) COCC1(C(=O)Nc2cc3c(-c4cn(C)nc4-c4ccccc4)ncnc3cc2OC)CCC1 | 8.92
4) COc1cc2ncnc(-c3cnn(CC(F)F)c3-c3ccc(F)cc3)c2cc1C1(O)CC1 | 6.08
5) COc1cc2ncnc(-c3cn(C)nc3-c3ccccc3)c2nc1O[C@H](C)c1cn(C)nn1 | 8.72
6) COc1cc2ncnc(-c3cn(C)nc3-c3ccccc3)c2cc1NC(=O)N1CCN(C)[C@@H](C)[C@H]1C (single isomer, unassigned) | 8.40
7) CCC(=O)Nc1cc2c(-c3cn(C)nc3-c3ccccc3)ncnc2cc1OC | 8.80
8) COc1cc2ncnc(-c3cn(CC(F)F)nc3-c3ccccc3)c2cc1[C@@H](C)O (single isomer, unassigned) | 8.39

A: CC(C)Oc1cc2ncnc(-c3cn(C)nc3-c3ccccc3)c2cc1[C@@H](C)O (single isomer, unassigned)
B: COc1cc2ncnc(-c3cn(C)nc3-c3ccccc3)c2cc1NC(=O)[C@@H]1C[C@@H]1C
C: CN1CCC(n2cc(-c3ccc4c(-c5cn(C)nc5-c5ccccc5)ncnc4c3)cn2)CC1
D: COc1cc2ncnc(-c3cn(C)nc3-c3ccccc3)c2nc1NC(=O)C12CCCN1CCC2
E: CCOc1cc2ncnc(-c3cn(C)nc3-c3ccccc3)c2cc1N1CCOCC1=O
Prompt line: Please put the entries in order of rising pIC50. Form entry: labels listed in requested order.
Response line: A, E, D, B, C
(A: 7.54, E: 7.92, D: 8.34, B: 8.96, C: 9.52)

Source listed as patent US20250236608A1.
